Hello, the source for this data is patent US20140348819A1, in case you need it.

Catalogue of ability of recombinant RTK ligand to confer resistance readings, one per entry.
Test system: six V600E BRAF melanoma cell lines
Test: Screening of recombinant RTK ligands for ability to confer resistance to BRAFi (PLX4720) or MEKi (PD184352) (Table 4)
Type: cell-based, human
Set-up: scale not given here
Conditions: G-361, PLX4720 - 2 uM, ligand 6.25 ng/ml
property.name: ability of recombinant RTK ligand to confer resistance

INSERT INTO results (molecule, numeric_readout) VALUES
  ('VEGF-C (protein, UniProt P49767 112-227, looked up) Vascular endothelial growth …: AHYNTEILKSIDNEWRKTQCMPREVCIDVGKEFGVATNTFFKPPCVSVYRCGGCCNSEGLQCMNTSTSYLSKTLFEITVPLSQGPKPVTISFANHTSCRCMSKLDVYRQVHSIIRR', 0.97),
  ('Ephrin-A4 (protein, UniProt P52798 26-170, looked up) Ephrin-A4: LRHVVYWNSSNPRLLRGDAVVELGLNDYLDIVCPHYEGPGPPEGPETFALYMVDWPGYESCQAEGPRAYKRWVCSLPFGHVQFSEKIQRFTPFSLGFEFLPGETYYYISVPTPESSGQCLRLQVSVCCKERKSESAHPVGSPGES', 1.05),
  ('flt-3 ligand (FL) (protein, UniProt P49771 27-235, looked up) Fms-related tyrosine kinase 3 …: TQDCSFQHSPISSDFAVKIRELSDYLLQDYPVTVASNLQDEELCGGLWRLVLAQRWMERLKTVAGSKMQGLLERVNTEIHFVTKCAFQPPPSCLRFVQTNISRLLQETSEQLVALKPWITRQNFSRCLELQCQPDSSTLPPPWSPRPLEATAPTAPQPPLLLLLLLPVGLLLLAAAWCLHWQRTRRRTPRPGEQVPPVPSPQDLLLVEH', 0.88),
  ('BDNF (protein, UniProt P23560 19-247, looked up) Neurotrophic factor BDNF …: APMKEANIRGQGGLAYPGVRTHGTLESVNGPKAGSRGLTSLADTFEHVIEELLDEDQKVRPNEENNKDADLYTSRVMLSSQVPLEPPLLFLLEEYKNYLDAANMSMRVRRHSDPARRGELSVCDSISEWVTAADKKTAVDMSGGTVTVLEKVPVSKGQLKQYFYETKCNPMGYTKEGCRGIDKRHWNSQCRTTQSYVRALTMDSKKRIGWRFIRIDTSCVCTLTIKRGR', 1.04),
  ('GDNF (protein, UniProt P39905 78-211, looked up) Glial cell line-derived …: SPDKQMAVLPRRERNRQAAAANPENSRGKGRRGQRGKNRGCVLTAIHLNVTDLGLGYETKEELIFRYCSGSCDAAETTYDKILKNLSRNRRLVSDKVGQACCRPIAFDDDLSFLDDNLVYHILRKHSAKRCGCI', 0.93);
